test system: Escherichia coli TOP10; assay: shrunken log2 fold change of peptide-encoding DNA abundance (4.5 h post-induction vs induction); higher = less antimicrobial activity (less host growth inhibition); conditions: time post-induction: 4.5 h; library: site-saturation at positions 5, 18, 19, 20;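 further: peptides expressed intracellularly from a pBAD plasmid library in pooled LB shake-flask culture, induced with 0.3% L-arabinose, DNA abundance read by NGS, three biological replicates, DESeq2 with apeglm shrinkage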
MEASURED_PROPERTY: shrunken log2 fold change
Give a plain numeric answer without units written out.

Before answering, review these 7 worked examples.
Q: Could you share which shrunken log2 fold change value was measured for RRIRYRPPRLPRPRPRPQGDPRP ?
Ans: -0.074

Q: And for RRIRKRPPRLPRPRPRPWGEPRP ?
Ans: 0.539

Q: And for RRIRWRPPRLPRPRPRPLACPRP ?
Ans: 0.206

Q: And for RRIRARPPRLPRPRPRPNNIPRP ?
Ans: -0.537

Q: And for RRIRPRPPRLPRPRPRPKPEPRP ?
Ans: 0.311

Q: And for RRIRYRPPRLPRPRPRPKQEPRP ?
Ans: -0.017

Q: And for RRIRVRPPRLPRPRPRPWYNPRP ?
Ans: -0.153

Would you kindly look at the next entry?
Q: Could you share which shrunken log2 fold change value was measured for RRIRMRPPRLPRPRPRPYGQPRP ?
Ans: 0.0303
